In this section, each of the compounds is paired with its reported TGI.
- System: MCF7 breast
- Experimental protocol: NCI tumour cell line growth inhibition, 48 h
Measured quantity: TGI (µM)

>>> df
                                   compound          tgt  measured_quantity  value_qualifier  measured_number
0       O=C(/C=C/c1c[nH]c2ccccc12)c1ccccc1O  MCF7 breast                TGI                =             18.7
1  O=C(CNC(=O)c1cccc2ccccc12)Nc1ccccc1Oc1ccc(O)cc1  MCF7 breast                TGI                >               25
2  O=c1[nH]nc(Nc2ccc(Cl)cc2)c2nnn(-c3ccc([N+](=O)[O-])cc3)c12  MCF7 breast                TGI                =             47.4
3  CC(=O)O[C@H]1CC[C@@]2(C)C(=CC[C@@H]3[C@@H]2CC[C@]2(C)C(=O)/C(=C\c4ccccc4)C[C@@H]32)C1  MCF7 breast                TGI                >              100
4  CCOc1ccc(-c2nc3ccc(-c4nc5ccc(N6CCN(C)CC6)cc5[nH]4)cc3[nH]2)cc1OCC  MCF7 breast                TGI                =             3.05
5  CC(C)c1cc(C(C)C)c(S(=O)(=O)N/N=C2\CC3CCC2(C)C3(C)C)c(C(C)C)c1 (centres undefined)  MCF7 breast                TGI                =             30.7
6  COc1nc2c(c(=O)[nH]1)N=C(c1ccc([N+](=O)[O-])cc1)CC(c1ccccc1)N2 (centres undefined)  MCF7 breast                TGI                >              100
7  CSc1ccc(/C=C2\N=C(c3ccccc3)N(NC(=O)c3c(Cl)c(Cl)c(Cl)c(Cl)c3-c3nc4ccccc4[nH]3)C2=O)cc1  MCF7 breast                TGI                >              100
8  O=C(c1ccco1)c1c(C(F)(F)F)n([O-])c2cc(Cl)c(Cl)cc2[n+]1=O  MCF7 breast                TGI                =            0.452
